Target: C3b (Homo sapiens)
Construct: biotin (chemical biotinylation of C3b)
Test: SPR analysis of binding kinetics to immobilized C3b
Conditions: relative to peptide 14
Method: The kinetics of the interaction between C3b and each compstatin analog was analyzed by SPR on a Biacore 3000 instrument (GE Healthcare Corp., Piscataway, N.J.) at 25° C. using PBS-T (10 mM sodium phosphate, 150 mM NaCl, 0.005% Tween-20, pH 7.4) as the running buffer, as described above. […] Processed biosensor data were globally fitted to a 1:1 Langmuir binding model, and the equilibrium dissociation constant (KD) was calculated from the equation KD=kd/ka. […]
For each entry below, report its rka value.
// response body must contain only the number

query: Item CC[C@H](C)[C@H](NC(C)=O)C(=O)N[C@H]1CSSC[C@@H](C(=O)N(C)[C@H](C(N)=O)[C@@H](C)CC)NC(=O)[C@H](CCCNC(=N)N)NC(=O)[C@H](Cc2c[nH]cn2)NC(=O)[C@H](C)NC(=O)CN(C)C(=O)[C@H](Cc2c[nH]c3ccccc23)NC(=O)[C@H](CC(=O)O)NC(=O)[C@H](CCC(N)=O)NC(=O)[C@H](Cc2cn(C)c3ccccc23)NC(=O)[C@H](C(C)C)NC1=O [Peptide 21] with C3b (Homo sapiens) - rka?
result: 1.5

query: Now try CC[C@H](C)[C@H](NC(=O)[C@@H]1CSSC[C@H](NC(=O)[C@@H](NC(C)=O)[C@@H](C)CC)C(=O)N[C@@H](C(C)C)C(=O)N[C@@H](Cc2cn(C)c3ccccc23)C(=O)N[C@@H](CCC(N)=O)C(=O)N[C@@H](CC(=O)O)C(=O)N[C@@H](Cc2c[nH]c3ccccc23)C(=O)N(C)CC(=O)N[C@@H](C)C(=O)N[C@@H](Cc2c[nH]cn2)C(=O)N[C@@H](CCCNC(=N)N)C(=O)N1)C(N)=O [Peptide 17, Ac−Ic[CV(^1−MeW)QDW(^N−MeG)AHRC]I-NH2] .
result: 1.5

====

Molecular target: C3b (Homo sapiens)
Construct: biotin (chemical biotinylation of C3b)
Assay: SPR analysis of binding kinetics to immobilized C3b
Conditions: relative to peptide 14
Bridge positions count the residues as written; N and C are the ends. Square brackets hold non-standard residues; d marks the D form. Peptide text beside a SMILES is read from it. Trp(1-Me) = Cn1cc(C[C@H](N)C(=O)O)c2ccccc21; Nle = CCCC[C@H](N)C(=O)O; Sar = CNCC(=O)O
For each entry below, report its rkd value.
// response body must contain only the number

query: What rkd value was documented for this molecule, CC[C@H](C)[C@H](NC(C)=O)C(=O)N[C@H]1CSSC[C@@H](C(=O)N(C)[C@H](C(N)=O)[C@@H](C)CC)NC(=O)[C@H](CCCNC(=N)N)NC(=O)[C@H](Cc2c[nH]cn2)NC(=O)[C@H](C)NC(=O)CN(C)C(=O)[C@H](Cc2c[nH]c3ccccc23)NC(=O)[C@H](CC(=O)O)NC(=O)[C@H](CCC(N)=O)NC(=O)[C@H](Cc2cn(C)c3ccccc23)NC(=O)[C@H](C(C)C)NC1=O [Peptide 21] ?
result: 3.2

query: Now try CC[C@H](C)[C@H](NC(=O)[C@@H]1CSSC[C@H](NC(=O)[C@@H](NC(C)=O)[C@@H](C)CC)C(=O)N[C@@H](C(C)C)C(=O)N[C@@H](Cc2cn(C)c3ccccc23)C(=O)N[C@@H](CCC(N)=O)C(=O)N[C@@H](CC(=O)O)C(=O)N[C@@H](Cc2c[nH]c3ccccc23)C(=O)N(C)CC(=O)N[C@@H](C)C(=O)N[C@@H](Cc2c[nH]cn2)C(=O)N[C@@H](CCCNC(=N)N)C(=O)N1)C(N)=O [Peptide 17, Ac−Ic[CV(^1−MeW)QDW(^N−MeG)AHRC]I-NH2] .
result: 1.7

query: Now try CCCC[C@H](NC(=O)[C@@H]1CSSC[C@H](NC(=O)[C@@H](NC(C)=O)[C@@H](C)CC)C(=O)N[C@@H](C(C)C)C(=O)N[C@@H](Cc2cn(C)c3ccccc23)C(=O)N[C@@H](CCC(N)=O)C(=O)N[C@@H](CC(=O)O)C(=O)N[C@@H](Cc2c[nH]c3ccccc23)C(=O)N(C)CC(=O)N[C@@H](C)C(=O)N[C@@H](Cc2c[nH]cn2)C(=O)N[C@@H](CCCNC(=N)N)C(=O)N1)C(N)=O [Peptide 19] (Ac-ICV[Trp(1-Me)]QDW[Sar]AHRC[Nle]-NH2; disulfide 2-12) .
result: 1.7

query: Now try CC[C@H](C)[C@H](NC(C)=O)C(=O)N[C@H]1CSSC[C@@H](C(=O)N[C@@H](CC(C)C)C(N)=O)NC(=O)[C@H](CCCNC(=N)N)NC(=O)[C@H](Cc2c[nH]cn2)NC(=O)[C@H](C)NC(=O)CN(C)C(=O)[C@H](Cc2c[nH]c3ccccc23)NC(=O)[C@H](CC(=O)O)NC(=O)[C@H](CCC(N)=O)NC(=O)[C@H](Cc2cn(C)c3ccccc23)NC(=O)[C@H](C(C)C)NC1=O [Peptide 18, Ac−Ic[CV(^1−MeW)QDW(^N−MeG)AHRC]L-NH2] (Ac-ICV[Trp(1-Me)]QDW[Sar]AHRCL-NH2; disulfide 2-12) .
result: 1.9

====

Biological target: C3b (Homo sapiens, UniProt P01024)
Construct: biotin (chemical biotinylation of C3b)
Sequence (P01024 23-667 limits assumed): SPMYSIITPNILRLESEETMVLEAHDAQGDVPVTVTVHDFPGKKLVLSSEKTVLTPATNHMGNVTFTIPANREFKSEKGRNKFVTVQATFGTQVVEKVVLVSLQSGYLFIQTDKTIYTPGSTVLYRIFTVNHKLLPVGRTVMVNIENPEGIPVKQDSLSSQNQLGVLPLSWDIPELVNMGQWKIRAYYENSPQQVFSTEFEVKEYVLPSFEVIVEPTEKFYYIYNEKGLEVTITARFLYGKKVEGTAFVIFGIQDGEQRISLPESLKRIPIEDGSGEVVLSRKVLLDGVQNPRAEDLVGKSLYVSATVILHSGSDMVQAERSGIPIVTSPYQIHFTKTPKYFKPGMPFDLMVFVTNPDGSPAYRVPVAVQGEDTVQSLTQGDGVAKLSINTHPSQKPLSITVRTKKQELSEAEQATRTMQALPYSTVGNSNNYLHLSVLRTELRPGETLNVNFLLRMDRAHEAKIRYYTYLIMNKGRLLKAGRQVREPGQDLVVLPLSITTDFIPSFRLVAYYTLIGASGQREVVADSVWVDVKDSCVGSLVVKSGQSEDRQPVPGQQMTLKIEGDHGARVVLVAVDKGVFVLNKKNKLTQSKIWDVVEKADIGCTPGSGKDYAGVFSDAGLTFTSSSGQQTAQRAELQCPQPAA
Sequence (P01024 749-1663 limits assumed): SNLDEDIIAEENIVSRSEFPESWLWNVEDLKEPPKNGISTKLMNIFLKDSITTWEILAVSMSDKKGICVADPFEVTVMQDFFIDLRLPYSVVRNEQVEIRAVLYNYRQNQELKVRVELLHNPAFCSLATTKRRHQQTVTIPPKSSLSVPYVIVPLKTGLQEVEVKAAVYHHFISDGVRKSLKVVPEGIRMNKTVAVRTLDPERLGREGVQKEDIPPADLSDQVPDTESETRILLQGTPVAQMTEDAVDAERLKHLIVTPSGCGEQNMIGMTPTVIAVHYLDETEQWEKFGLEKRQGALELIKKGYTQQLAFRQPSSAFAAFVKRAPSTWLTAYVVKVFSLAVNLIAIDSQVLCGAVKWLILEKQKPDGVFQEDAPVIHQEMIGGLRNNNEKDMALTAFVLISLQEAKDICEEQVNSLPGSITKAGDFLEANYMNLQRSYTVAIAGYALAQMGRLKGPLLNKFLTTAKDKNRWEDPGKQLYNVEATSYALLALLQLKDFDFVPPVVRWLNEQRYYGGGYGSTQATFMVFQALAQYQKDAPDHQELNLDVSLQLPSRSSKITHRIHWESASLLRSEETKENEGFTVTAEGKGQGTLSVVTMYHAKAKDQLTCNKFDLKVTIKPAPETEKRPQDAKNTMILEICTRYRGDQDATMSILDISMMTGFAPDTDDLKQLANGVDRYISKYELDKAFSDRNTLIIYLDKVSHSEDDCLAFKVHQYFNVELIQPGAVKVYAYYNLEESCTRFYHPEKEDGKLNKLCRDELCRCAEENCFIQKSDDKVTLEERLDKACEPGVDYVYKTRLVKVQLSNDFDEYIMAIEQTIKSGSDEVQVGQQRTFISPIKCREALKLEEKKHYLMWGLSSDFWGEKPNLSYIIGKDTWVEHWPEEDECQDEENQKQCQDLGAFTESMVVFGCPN
Experiment: SPR analysis of binding kinetics to immobilized C3b
Settings: pH 7.4, read-out: ka
Bridge positions count the residues as written; N and C are the ends. Square brackets hold non-standard residues; d marks the D form. Peptide text beside a SMILES is read from it. Trp(1-Me) = Cn1cc(C[C@H](N)C(=O)O)c2ccccc21; Nle = CCCC[C@H](N)C(=O)O; Sar = CNCC(=O)O
For each entry below, report its kon value.

query: Item CCCC[C@H](NC(=O)[C@@H]1CSSC[C@H](NC(=O)[C@@H](NC(C)=O)[C@@H](C)CC)C(=O)N[C@@H](C(C)C)C(=O)N[C@@H](Cc2cn(C)c3ccccc23)C(=O)N[C@@H](CCC(N)=O)C(=O)N[C@@H](CC(=O)O)C(=O)N[C@@H](Cc2c[nH]c3ccccc23)C(=O)N(C)CC(=O)N[C@@H](C)C(=O)N[C@@H](Cc2c[nH]cn2)C(=O)N[C@@H](CCCNC(=N)N)C(=O)N1)C(N)=O [Peptide 19] (Ac-ICV[Trp(1-Me)]QDW[Sar]AHRC[Nle]-NH2; disulfide 2-12) with C3b (Homo sapiens, UniProt P01024) - kon?
result: 1.5e+06 M⁻¹ s⁻¹

query: Now try CC[C@H](C)[C@H](NC(=O)[C@@H]1CSSC[C@H](NC(=O)[C@@H](NC(C)=O)[C@@H](C)CC)C(=O)N[C@@H](C(C)C)C(=O)N[C@@H](Cc2cn(C)c3ccccc23)C(=O)N[C@@H](CCC(N)=O)C(=O)N[C@@H](CC(=O)O)C(=O)N[C@@H](Cc2c[nH]c3ccccc23)C(=O)NCC(=O)N[C@@H](C)C(=O)N[C@@H](Cc2c[nH]cn2)C(=O)N[C@@H](CCCNC(=N)N)C(=O)N1)C(N)=O [Peptide 16] .
result: 1e+06 M⁻¹ s⁻¹

query: Now try CC[C@H](C)[C@H](NC(=O)[C@@H]1CSSC[C@H](NC(=O)[C@@H](NC(C)=O)[C@@H](C)CC)C(=O)N[C@@H](C(C)C)C(=O)N[C@@H](Cc2cn(C)c3ccccc23)C(=O)N[C@@H](CCC(N)=O)C(=O)N[C@@H](CC(=O)O)C(=O)N[C@@H](Cc2c[nH]c3ccccc23)C(=O)N(C)CC(=O)N[C@@H](C)C(=O)N[C@@H](Cc2c[nH]cn2)C(=O)N[C@@H](CCCNC(=N)N)C(=O)N1)C(N)=O [Peptide 17, Ac−Ic[CV(^1−MeW)QDW(^N−MeG)AHRC]I-NH2] .
result: 1.5e+06 M⁻¹ s⁻¹

====

For each entry below, report its kon value.
Target: C3b (Homo sapiens)
Construct: biotin (chemical biotinylation of C3b)
Assay: SPR analysis of binding kinetics to immobilized C3b
Settings: pH 7.4, read-out: ka
Bridge positions count the residues as written; N and C are the ends. Square brackets hold non-standard residues; d marks the D form. Peptide text beside a SMILES is read from it. Trp(1-Me) = Cn1cc(C[C@H](N)C(=O)O)c2ccccc21; Sar = CNCC(=O)O

query: What kon value was documented for this compound, CC[C@H](C)[C@H](NC(C)=O)C(=O)N[C@H]1CSSC[C@@H](C(=O)N[C@@H](CC(C)C)C(N)=O)NC(=O)[C@H](CCCNC(=N)N)NC(=O)[C@H](Cc2c[nH]cn2)NC(=O)[C@H](C)NC(=O)CN(C)C(=O)[C@H](Cc2c[nH]c3ccccc23)NC(=O)[C@H](CC(=O)O)NC(=O)[C@H](CCC(N)=O)NC(=O)[C@H](Cc2cn(C)c3ccccc23)NC(=O)[C@H](C(C)C)NC1=O [Peptide 18, Ac−Ic[CV(^1−MeW)QDW(^N−MeG)AHRC]L-NH2] (Ac-ICV[Trp(1-Me)]QDW[Sar]AHRCL-NH2; disulfide 2-12) ?
result: 1.3e+06 M⁻¹ s⁻¹

query: Now try CC[C@H](C)[C@H](NC(C)=O)C(=O)N[C@H]1CSSC[C@@H](C(=O)N(C)[C@H](C(N)=O)[C@@H](C)CC)NC(=O)[C@H](CCCNC(=N)N)NC(=O)[C@H](Cc2c[nH]cn2)NC(=O)[C@H](C)NC(=O)CN(C)C(=O)[C@H](Cc2c[nH]c3ccccc23)NC(=O)[C@H](CC(=O)O)NC(=O)[C@H](CCC(N)=O)NC(=O)[C@H](Cc2cn(C)c3ccccc23)NC(=O)[C@H](C(C)C)NC1=O [Peptide 21] .
result: 1.5e+06 M⁻¹ s⁻¹
